MEASURED_ON: T1, Soluble ASGR-1 (recombinant, biotinylated) (human, UniProt P07306 62-291, limits assumed, biotinylated)
T1 construct: also called recombinant, soluble ASGR-1 biotinylated protein
T1 sequence: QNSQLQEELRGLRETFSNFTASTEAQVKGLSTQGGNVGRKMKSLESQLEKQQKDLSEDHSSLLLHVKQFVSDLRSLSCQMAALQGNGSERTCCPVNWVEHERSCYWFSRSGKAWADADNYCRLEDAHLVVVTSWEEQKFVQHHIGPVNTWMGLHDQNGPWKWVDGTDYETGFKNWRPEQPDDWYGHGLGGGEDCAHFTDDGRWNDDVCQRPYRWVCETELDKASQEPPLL
PROTOCOL: limiting antigen bead FACS; biotinylated soluble ASGR-1 coated at 2.5 ng/mL on LumAvidin beads;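 further: hybridoma supernatants of ligand-competing antibodies bound to antigen-loaded beads, read by flow cytometry on an iQue Screener in calcium-containing buffer, higher fluorescence meaning stronger relative affinity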

- BINDER: "22G5 (antibody, V domains shown, Tested as hybridoma supernatant) VH: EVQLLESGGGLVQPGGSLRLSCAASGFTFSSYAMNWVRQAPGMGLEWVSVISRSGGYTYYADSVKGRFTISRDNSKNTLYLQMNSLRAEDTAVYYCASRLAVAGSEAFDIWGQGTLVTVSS VL: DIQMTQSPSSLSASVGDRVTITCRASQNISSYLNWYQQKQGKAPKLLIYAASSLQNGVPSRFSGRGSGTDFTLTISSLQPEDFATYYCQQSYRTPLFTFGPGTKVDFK"
  FACS Geomean: 1080
- BINDER: "5E5 (antibody, V domains shown, Tested as hybridoma supernatant) VH: QVQLVESGGGVVQPGRSLRLSCAASGFTFSNYVMHWVRQAPGKGLEWVAVIWYDGSNKYYADSVKGRFTISRDNSKNTLYLQMNSLRAEDTAVYYCTREVYSSGWYDYGMDVWGQGTTVTVSS VL: DIQMTQSPSSLSASVGDRVTITCRASQGIRNDLGWYQQKPGKAPKRLIYAASSLQSGVPSRFSGSGSGTEFTLTISSLQPEDFATYYCLQHYSYPRTFGQGTKVEVK"
  FACS Geomean: 3280
- BINDER: "56E5 (antibody, V domains shown, Tested as hybridoma supernatant) VH: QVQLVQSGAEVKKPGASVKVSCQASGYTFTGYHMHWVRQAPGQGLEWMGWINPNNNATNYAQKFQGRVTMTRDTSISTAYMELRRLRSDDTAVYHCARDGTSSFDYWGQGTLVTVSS VL: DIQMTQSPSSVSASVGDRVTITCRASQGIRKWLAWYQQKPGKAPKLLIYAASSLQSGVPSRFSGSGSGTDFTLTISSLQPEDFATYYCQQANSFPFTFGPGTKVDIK"
  FACS Geomean: 22600
